Value source: paper PMC8883597

Half-life (beta half-life) values by entry
- cond: male, Sprague Dawley, rat, in vivo, po, 300 mg/kg
Express the result in h but write the number alone.

Lab book: Half-life (beta half-life) of Cc1ccc(O)c(-n2nc3ccccc3n2)c1 noted as 103

Lab book: Half-life (beta half-life) of Cc1cc(-n2nc3ccc(Cl)cc3n2)c(O)c(C(C)(C)C)c1 noted as 37.5

Lab book: Half-life (beta half-life) of CCC(C)(C)c1cc(-n2nc3ccccc3n2)c(O)c(C(C)(C)CC)c1 noted as 17.1

Lab book: Half-life (beta half-life) of CC(C)(C)CC(C)(C)c1ccc(O)c(-n2nc3ccccc3n2)c1 noted as 21.4

----------
- cond: male, Sprague Dawley, rat, in vivo, po, 300 mg/kg
readout: Cmax (ng/mL)
Express the result in ng/mL but write the number alone.

CC(C)(C)CC(C)(C)c1ccc(O)c(-n2nc3ccccc3n2)c1 | 3590

Lab book: Cmax of Cc1ccc(O)c(-n2nc3ccccc3n2)c1 noted as 358

Lab book: Cmax of Cc1cc(-n2nc3ccc(Cl)cc3n2)c(O)c(C(C)(C)C)c1 noted as 2450

----------
Tmax values by entry
- cond: male, Sprague Dawley, rat, in vivo, po, 30 mg/kg
Express the result in h but write the number alone.

Reference set, count: 3
Cc1cc(-n2nc3ccc(Cl)cc3n2)c(O)c(C(C)(C)C)c1 [Bumetrizole] | 3.08
CCC(C)(C)c1cc(-n2nc3ccccc3n2)c(O)c(C(C)(C)CC)c1 [ditPe-BZT] | 2.96
Cc1ccc(O)c(-n2nc3ccccc3n2)c1 [Drometrizole, 2-(2H-Benzotriazol-2-yl)-4-methylphenol] | 0.0196

Lab book: Tmax of CC(C)(C)CC(C)(C)c1ccc(O)c(-n2nc3ccccc3n2)c1 [Octrizole] noted as 3.71
